biological target: Influenza virus A/Brisbane/59/2007 (H1N1) (Influenza A virus A/Brisbane/59/2007 (H1N1)); test: cell-based or functional assay
endpoint: Neutralizing activity (%) at 250 µg/ml
Answers are plain numbers, in %.

# annotated cases, reported Neutralizing activity (%) at 250 µg/ml shown
binder	unitsOfMeasure	Neutralizing activity (%) at 250 µg/ml
Group 62 representative clone F083-349, Fab-PP-type antibody (Fab, V domains shown) VH: QVQLVQSGAEVRKPGSSVKVSCKASGVIFIKFAISWVRQAPGQGLEWMGGIIPMFGTTNYAQKFQGRVTITADGSTNTVYMELSSLTSEDTAVYYCAKEEGYYYGSGPLDSWGQGTLVTVSS VL: DIVMTQSPDFLSVSLGERVTINCKSSQTVLNRSNNKNYLAWYQKKPGQPPRLLLYWSSTRESGVPDRFSGSGSETDFALTITNLQAEDLAVYFCQQFYDMPVTFGGGTKLEIK	%	92.1
Group 63 representative clone F083-336, Fab-PP-type antibody (Fab, V domains shown) VH: QVQLQQSGAEVKQPGSSVKVSCKASGGIFRSNAISWVRQAPGQGLEWMGGIVALFGTANYAQKFQGRVTITADESTSTVYMELSSLRSEDTARYYCARNSGYHISGFYLDYWGQGTLVTVSS VL: EIVLTQSPSSLSASVGDRVTITCRASQGISNYLAWYQQRPGKVPKLLIYTASTLLSGVPSRFSGGGSGTDYTLTISSLQPEDVATYYCQEYKSVPLTFGPGTKVEIK	%	100
Group 80 representative clone F083-373, Fab-PP-type antibody (Fab, V domains shown) VH: QVQLVQSGADVKKPGSSVRVSCKASGRTFGNYAISWVRQAPGQGLEWMGGITPIFGAANYAQKFQGRVTISADLSTTMVYMDLSSLRSDDTAFYYCAGHPTYYYGSPMDYWGQGTLVTVSS VL: EIVLTQSPSSLSASVGDRVTITCRASQSIATYLNWYQQKPGKAPNLLIYAASNLQSGVPSRFSGSGSGTDFTLTISSLQPEDFATYVCLQSYSATLTFGGGTKVEIK	%	74.3
Group 55 representative clone F083-305, Fab-PP-type antibody (Fab, V domains shown) VH: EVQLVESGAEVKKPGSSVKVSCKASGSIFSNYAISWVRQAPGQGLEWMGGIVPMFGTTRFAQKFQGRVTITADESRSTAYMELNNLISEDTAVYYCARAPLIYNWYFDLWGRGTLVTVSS VL: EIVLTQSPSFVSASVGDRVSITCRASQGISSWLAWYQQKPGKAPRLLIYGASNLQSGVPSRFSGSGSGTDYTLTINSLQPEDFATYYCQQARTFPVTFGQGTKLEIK	%	96.1

Here's the next entry for you.
Memo: Group 43 representative clone F081-007, Fab-PP-type antibody (Fab, V domains shown) VH: QVQLQQSGAEVKKPGSSVKVSCKASGGIFRKNAISWVRQAPGQGLEWMGGISAIFGTANYAQKFQGRVTITADESSNTVYMDLSRLRSEDTAIYYCASHPTYHFDKSGYRFDSWGQGTLVTVSS VL: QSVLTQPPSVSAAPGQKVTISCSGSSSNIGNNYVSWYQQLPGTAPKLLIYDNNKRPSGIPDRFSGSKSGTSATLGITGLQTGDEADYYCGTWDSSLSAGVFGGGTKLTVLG , reported Neutralizing activity (%) at 250 µg/ml: 100

src = patent US20160200799A1
